Source listed as patent US20250282818A1.

- Tested on: U266
- EXPERIMENTAL_DETAILS: MM and MCL cytotoxicity EC50 measurements, U266
- Assay type: cell-based
- TEST_CONDITIONS: Homo sapiens, U-266; U266, 48 hours, WST-1

| COMPOUND | EC50 |
| --- | --- |
| C[C@H]1/C=C/C(=O)NCC[C@H](O)C[C@H](NC(=O)[C@@H](NC(=O)/C=C/C=C/CCCCCc2ccccc2)[C@@H](C)O)C(=O)N1 [compound 50] | ~20 nM |
